- assay_target: Carbonic anhydrase 12 (Homo sapiens, UniProt O43570)
- Sequence (O43570 whole entry): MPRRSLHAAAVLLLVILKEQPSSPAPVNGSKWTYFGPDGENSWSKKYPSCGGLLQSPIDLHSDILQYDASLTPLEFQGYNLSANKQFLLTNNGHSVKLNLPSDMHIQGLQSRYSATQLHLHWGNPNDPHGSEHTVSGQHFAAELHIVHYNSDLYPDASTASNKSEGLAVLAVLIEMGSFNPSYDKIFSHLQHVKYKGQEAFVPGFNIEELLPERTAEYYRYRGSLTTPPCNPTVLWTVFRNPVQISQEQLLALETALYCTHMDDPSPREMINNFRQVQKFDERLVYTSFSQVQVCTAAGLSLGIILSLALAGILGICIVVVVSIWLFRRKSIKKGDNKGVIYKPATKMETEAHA
recorded_metric: Ki (nM)
Give your result in nM as a bare value.

Exam item: Fill in the recorded Ki for this compound, with Carbonic anhydrase 12 (Homo sapiens, UniProt O43570) as test system: C=CCOc1ccc2ccc(=O)oc2c1 [7-ALLYLOXYCOUMARIN]
Marked response: 640

====

- assay_target: Carbonic anhydrase 9 (Homo sapiens, UniProt Q16790)
- method_description: Inhibition of human carbonic anhydrase 9 after 6 hrs by stop-flow CO2 hydration assay
Listed below: pKi values for each entry.
Formally, pKi is defined as -log10 of the concentration c, with c in mol/L.

>>> df
                       molecule  recorded_metric  recorded_number
0  CC(=O)Nc1ccc2c(C)cc(=O)oc2c1              pKi             6.41
1        O=c1ccc2ccc(OCCO)cc2o1              pKi             6.04
2       C=CCOc1ccc2ccc(=S)oc2c1              pKi             5.49
3       C=CCOc1ccc2oc(=S)ccc2c1              pKi             5.49

Exam item: I am curious: what pKi value has been reported for C=CCOc1ccc2ccc(=O)oc2c1 [7-ALLYLOXYCOUMARIN] ?
Marked response: 6.14

Exam item: Endpoint output: pKi of O=c1ccc2ccc(OCCF)cc2o1 . Value?
Marked response: 6.17

Exam item: Name the recorded pKi for CC(C)(C)[Si](C)(C)Oc1ccc2oc(=O)ccc2c1 .
Marked response: 6.10

Exam item: For the molecule shown here, Cc1ccc(S(=O)(=O)OCCOc2ccc3ccc(=O)oc3c2)cc1 , give the reported pKi.
Marked response: 6.28

Exam item: Entry under review: C=CCOc1cc(=O)oc2ccccc12 . Reported pKi?
Marked response: 6.68

Exam item: Need pKi of CC(C)(C)[Si](C)(C)Oc1ccc2oc(=S)ccc2c1 , thanks.
Marked response: 6.07

Exam item: Which pKi is listed for CC(C)(C)[Si](C)(C)Oc1ccc2ccc(=S)oc2c1 ?
Marked response: 6.02
